- System tested: human recombinant C-terminal His-tagged LDHA (Homo sapiens)
- Construct: His (C)
- Experiment description: Human LDHA enzyme assay, human serum albumin (HSA) shift
- Assay type: biochemical
- Reported conditions: final concentration 10% HSA
Measurement type: IC50

Some compounds with recorded IC50:
NS(=O)(=O)c1ccc(Cc2c(-c3ccc(C(F)F)cc3)nn(-c3nc(C(=O)O)cs3)c2CC2CC2)cc1F [Example 21] : 10 to 100 nM
NS(=O)(=O)c1ccc(Cc2c(-c3cccc(F)c3)nn(-c3nc(C(=O)O)cs3)c2CC2CC2)cc1F [Example 14] : 1 to 10 nM

List reported IC50 for each of these compounds:
1. CCc1c(Cc2ccc(S(N)(=O)=O)cc2)c(-c2ccc(F)cc2)nn1-c1nc(C(=O)O)cs1 [Example 4]
2. COc1cc(-c2nn(-c3nc(C(=O)O)cs3)c(CC3CC3)c2Cc2ccc(S(N)(=O)=O)c(F)c2)ccc1C#N [Example 23]
3. NS(=O)(=O)c1ccc(Cc2c(-c3ccc(F)cc3)nn(-c3nc(C(=O)O)cs3)c2CC2CC2)cc1 [Example 5]

["10 to 100 nM", "1 to 10 nM", "1 to 10 nM"]

For each of the compounds below, note its IC50.
1. NS(=O)(=O)c1ccc(Cc2c(-c3ccccc3)nn(-c3nc(C(=O)O)cs3)c2CC2CC2)cc1F [Example 20]
2. NS(=O)(=O)c1ccc(Cc2c(-c3ccc(F)c(Cl)c3)nn(-c3nc(C(=O)O)cs3)c2CC2CC2)cc1F [Example 8]

1. 1 to 10 nM
2. 1 to 10 nM
